# targetUnderTest: YAP-TEAD interaction (full length human TEAD1-Gal4 fusion, full length YAP mutant S127A, S397A) (UniProt P04386+P28347)
# Construct: The TEAD1 construct was prepared by cloning the full length human TEAD1 cDNA; expressed in transfected cells; host or cells: HEK293 GripTite 293 MSR (Invitrogen R795-07), transiently transfected with pSG5_CMV plasmids
# Sequence (P04386+P28347 fused, stated change not applied): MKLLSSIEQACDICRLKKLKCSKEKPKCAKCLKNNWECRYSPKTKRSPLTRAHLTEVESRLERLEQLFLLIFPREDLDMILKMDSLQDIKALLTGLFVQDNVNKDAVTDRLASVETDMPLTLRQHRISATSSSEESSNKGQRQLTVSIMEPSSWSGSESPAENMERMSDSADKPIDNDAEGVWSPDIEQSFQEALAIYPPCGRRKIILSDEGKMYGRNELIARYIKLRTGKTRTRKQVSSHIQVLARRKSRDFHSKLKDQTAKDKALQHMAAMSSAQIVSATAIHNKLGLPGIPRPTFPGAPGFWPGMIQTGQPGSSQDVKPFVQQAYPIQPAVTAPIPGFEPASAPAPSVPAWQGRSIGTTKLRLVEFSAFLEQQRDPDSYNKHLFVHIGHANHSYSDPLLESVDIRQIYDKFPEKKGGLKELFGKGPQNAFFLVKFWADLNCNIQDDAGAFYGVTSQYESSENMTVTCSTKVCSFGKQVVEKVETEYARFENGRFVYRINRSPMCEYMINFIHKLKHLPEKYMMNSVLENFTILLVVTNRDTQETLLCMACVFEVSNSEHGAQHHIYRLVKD
# experiment: Cell-based TEAD-GAL4 transactivation assay (luciferase reporter, HEK293)
# conditionSummary: HEK293 cells, compounds 0.1 μM to 30 μM, 24 h, concentration that inhibited the luciferase activity by 50%
Parameter IC50: see the listing below.
Don't forget the unit after the number, please.

molecule: COc1cc(/C=N/N(CC(C)C)C2=NS(=O)(=O)c3cc(OCB4OC(=O)CN(C)CC(=O)O4)ccc32)ccc1F [Ex 106]
IC50: 0.94 µM
--
molecule: COc1cc(/C=N/N(CC(C)C)C2=NS(=O)(=O)c3cc(B4OC(=O)CN(C)CC(=O)O4)ccc32)ccc1F [Ex 69]
IC50: 1.04 µM

Field IC50 (entry CN(/N=C/c1ccc2[nH]c(=O)n(C3CCC3)c2c1)C1=NS(=O)(=O)c2ccccc21 [Ex 28] ) reads 3.06 µM

Item: COCCOc1ccc2c(c1)C(N(C)/N=C/c1ccc(F)c(OC)c1)=NS2(=O)=O [Ex 56] | IC50: 2.31 µM

----------
IC50 listing for selected compounds.
# targetUnderTest: YAP-TEAD interaction (full length human TEAD1-Gal4 fusion, full length YAP mutant S127A, S397A) (UniProt P04386+P28347)
# Construct: The TEAD1 construct was prepared by cloning the full length human TEAD1 cDNA; expressed in transfected cells; host or cells: HEK293 GripTite 293 MSR (Invitrogen R795-07), transiently transfected with pSG5_CMV plasmids
# experiment: Cell-based TEAD-GAL4 transactivation assay (luciferase reporter, HEK293)
# conditionSummary: HEK293 cells, compounds 0.1 μM to 30 μM, 24 h, concentration that inhibited the luciferase activity by 50%
Report only the number, with the unit µM understood.

Consider the worked cases shown below.
compound: COc1cc(/C=N/N(C)C2=NS(=O)(=O)c3cc(N)ccc32)ccc1F [Ex 49]
IC50 (µM): 3.11

compound: Cc1ncc(/C=N/N(C)C2=NS(=O)(=O)c3ccccc32)s1 [Ex 118]
IC50 (µM): 3.97

compound: CSc1cc(/C=N/N(CC(C)C)C2=NS(=O)(=O)c3ccccc32)ccc1F [Ex 107]
IC50 (µM): 2.14

Please fill in: IC50 reported for COc1cc(/C=N/N(CCc2ccccn2)C2=NS(=O)(=O)c3ccccc32)ccc1F [Ex 9] = 3.94

Measured IC50, CCC1(CC)C(=O)Nc2ccc(/C=N/N(CC(C)C)C3=NS(=O)(=O)c4cc(O)ccc43)cc21 [Ex 96] : 10.4

Form field IC50, entry CCN(/N=C/c1ccc(F)c(OC)c1)C1=NS(=O)(=O)c2cc(B(O)O)ccc21 [Ex 62] : 1.98

Lookup result for COc1cc(C2=NN(C3=NS(=O)(=O)c4ccccc43)CC(C)(C)C2)ccc1F [Ex 110] ; measured IC50: 3.23

IC50 reported for this compound Cc1ccc2c(c1)C(N(C)/N=C/c1ccc3[nH]c(=O)n(C)c3c1)=NS2(=O)=O [Ex 70] : 1.58

Summary for this compound, COc1cc(/C=N/N(CC2CCC2)C2=NS(=O)(=O)c3cc(B(O)O)ccc32)ccc1F [Ex 80] : IC50 is 1.07
